# Tested on: BDF1 mice, s.c. Lewis lung carcinoma, T/C %
# protocol_text: NCI In Vivo Anticancer Drug Screen. Data for tumor model Lewis Lung Carcinoma (subcutaneous) in B6D2F1 (BDF1) mice
# conditions_used: endpoint: mean tumor weight; dose: 50.0 mg/kg/injection; schedule: Q01DX011 (ip); vehicle: saline; higher = larger tumour
Records with an inconclusive call do not appear.
Overview of recorded T/C for various molecules

In the examples that follow, each entry is paired with its recorded T/C.
>  <structure_smiles>
C/C(=N\N=C(/C)c1ccc(-c2ccccc2)cc1)c1ccc(-c2ccccc2)cc1

>  <target>
BDF1 mice, s.c. Lewis lung carcinoma, T/C %

>  <value_type>
T/C

>  <endpoint_value>
85 % of control

$$$$
>  <structure_smiles>
C1CCNC1

>  <target>
BDF1 mice, s.c. Lewis lung carcinoma, T/C %

>  <value_type>
T/C

>  <endpoint_value>
67 % of control

$$$$
>  <structure_smiles>
COc1ccc2c(=O)cc(-c3ccccc3)n(C)c2c1

>  <target>
BDF1 mice, s.c. Lewis lung carcinoma, T/C %

>  <value_type>
T/C

>  <endpoint_value>
109 % of control

$$$$
>  <structure_smiles>
CC(=O)C(C)=O

>  <target>
BDF1 mice, s.c. Lewis lung carcinoma, T/C %

>  <value_type>
T/C

>  <endpoint_value>
116 % of control

$$$$
>  <structure_smiles>
CC(/C=N/N=C(N)N)=N/N=C(N)N

>  <target>
BDF1 mice, s.c. Lewis lung carcinoma, T/C %

>  <value_type>
T/C

>  <endpoint_value>
94 % of control

$$$$
>  <structure_smiles>
O=C(O)c1cc(O)c(O)c(O)c1

>  <target>
BDF1 mice, s.c. Lewis lung carcinoma, T/C %

>  <value_type>
T/C

>  <endpoint_value>
111 % of control

$$$$
>  <structure_smiles>
O=C(O)c1cc(=O)cc(C(=O)O)o1

>  <target>
BDF1 mice, s.c. Lewis lung carcinoma, T/C %

>  <value_type>
T/C

>  <endpoint_value>
76 % of control

$$$$

Moving on to the next molecule.
*Q* I would be grateful if you could share the reported T/C for "CCc1c(CC(=O)O)c2cc(C)ccc2n1Cc1ccc(Cl)cc1" .
*A* 70 % of control

----------
# Tested on: BDF1 mice, s.c. Lewis lung carcinoma, T/C %
# protocol_text: NCI In Vivo Anticancer Drug Screen. Data for tumor model Lewis Lung Carcinoma (subcutaneous) in B6D2F1 (BDF1) mice
# conditions_used: endpoint: mean tumor weight; dose: 600.0 mg/kg/injection; schedule: Q01DX011 (ip); vehicle: saline; higher = larger tumour
Inconclusive results are not listed.
value_type: T/C

In the examples that follow, each entry is paired with its recorded T/C.
>  <structure_smiles>
O=S(=O)(O)c1cc(O)ccc1O

>  <endpoint_value>
67 % of control

$$$$
>  <structure_smiles>
CCCCCCCCCCCCO[P+](=O)OCCCCCCCCCCCC

>  <endpoint_value>
19 % of control

$$$$
>  <structure_smiles>
CCOC(=O)NC

>  <endpoint_value>
44 % of control

$$$$

*Q* I would be grateful if you could share the reported T/C for "C[C@H](N)C(=O)N[C@@H]1[C@H]2C(=C(O)C[C@@H](O)[C@@H]2O)C(=O)O[C@@H]1C" .
*A* 60 % of control

*Q* I would be grateful if you could share the reported T/C for "CCN(C=O)CC" .
*A* 62 % of control

*Q* I would be grateful if you could share the reported T/C for "CCOC(N)=O" .
*A* 38 % of control
